tested on: CCRIS mutagenicity, Ames/micronucleus/aberration tests; experiment: CCRIS mutagenicity studies; details: Test System: AMES SALMONELLA TYPHIMURIUM; Strain/Indicator: TA98; Metabolic Activation: RAT, LIVER, S-9, AROCLOR 1254; Method: PREINCUBATION
Activity calls are given as the source filed them. The rule behind the calls is not given here.
MEASURED_ENDPOINT: mutagenic call

Use these answered entries as a reference point.
{"columns": ["COMPOUND", "mutagenic call"],
 "data": [
  ["OCc1ccco1", "inactive; negative"],
  ["NC(=O)CCCCC(N)=O", "inactive; negative"],
  ["Nc1ccc(-c2ccc(N)c(Cl)c2)cc1Cl", "active; positive"],
  ["CC(O)CO (centres undefined)", "inactive; negative"],
  ["COc1cc2c(cc1OC)CN(N=O)CC2", "active; positive"]
]}

Which mutagenic call reading was recorded for the compound `CCCC(=O)O[C@H]1[C@H](C)O[C@@H](O[C@H]2[C@H](N(C)C)[C@@H](O)[C@H](O[C@H]3[C@@H](CC=O)C[C@@H](C)[C@@H](O)/C=C/C=C/C[C@@H](C)OC(=O)C[C@@H](O)[C@@H]3OC)O[C@@H]2C)C[C@@]1(C)OC(=O)CC` ?
inactive; negative

Another compound: `O=c1c(=O)c2cccc3ccc4cccc1c4c32`
inactive; negative

Another compound: `c1ccncc1`
inactive; negative

Another compound: `COc1ccc(O)cc1`
inactive; negative

Another compound: `Clc1ccccc1`
inactive; negative

* * *

tested on: CCRIS mutagenicity, Ames/micronucleus/aberration tests; assay: CCRIS mutagenicity studies; conditions: Test System: AMES SALMONELLA TYPHIMURIUM; Strain/Indicator: TA1538; Metabolic Activation: RAT, LIVER, S-9, PHENOBARBITAL; Method: STANDARD PLATE
Activity calls are given as the source filed them. How the calls were made is not given here.
# valid calls are YES (active), NO (inactive); nothing else

Could you kindly confirm the outcome this assay logged for `Nc1ccc(-c2ccc(N)c(Cl)c2)cc1Cl` ?
YES

Another molecule: `CC(=O)Nc1ccc2c(c1)[nH]c1ccccc12`
YES

Another molecule: `c1ccc2c(c1)cc1ccc3cc4ccccc4c4ccc2c1c34`
YES

Another molecule: `Nc1ccc(N)cc1`
YES

Another molecule: `C[n+]1ccc(-c2ccccn2)cc1`
NO

Another molecule: `c1ccc(-c2ccccn2)nc1`
NO

Another molecule: `Cc1cccc(N=Nc2ccc(N(C)C)cc2)c1`
YES

* * *

tested on: CCRIS mutagenicity, Ames/micronucleus/aberration tests; experiment: CCRIS mutagenicity studies; settings: Test System: AMES SALMONELLA TYPHIMURIUM; Strain/Indicator: TA102; Metabolic Activation: RAT, LIVER, S-9, AROCLOR 1254; Method: STANDARD PLATE
Activity calls are given as the source filed them. No rule for the calls is given here.
# valid calls are active, inactive; nothing else

Could you kindly confirm the outcome this assay logged for `O=NO` ?
inactive

Another compound: `Cc1cc(C)cc(C)c1`
inactive

Another compound: ClCC1C(CCl)[C@@]2(Cl)C(Cl)=C(Cl)[C@]1(Cl)C2(Cl)Cl (some centres not stated)
inactive

Another compound: `CCOC(=O)c1[nH]c2ccccc2c1N=Cc1ccc(C)cc1`
inactive

Another compound: `CN[C@@H]1[C@H](O[C@H]2[C@H](O[C@H]3[C@H](O)[C@@H](O)[C@H](N=C(N)N)[C@@H](O)[C@@H]3N=C(N)N)O[C@@H](C)[C@]2(O)C=O)O[C@@H](CO)[C@H](O)[C@H]1O`
active

Another compound: `Cc1cccnc1`
inactive

Another compound: `CN(C)C(=O)c1nc(CNC(=O)CN)n(-c2ccc(Cl)cc2C(=O)c2ccccc2Cl)n1`
inactive
